Source: patent US11441138B2

Assay: Phase 1/2 study: plasma miglustat pharmacokinetics
Assay type: in vivo, human
Conditions: both sexes, human, plasma, po, 260 mg, plasma miglustat; High (about 260 mg oral) MD; arithmetic mean; read-out: Vz/F
observedProperty: Vd/F (L)
Answers are plain numbers, in L.

Q: Which Vd/F value belongs to CCCCN1C[C@H](O)[C@@H](O)[C@H](O)[C@H]1CO [miglustat] ?
A: 81

---

Assay: Phase 1/2 study: plasma miglustat pharmacokinetics
Type: in vivo, human
Details: both sexes, human, plasma, po, 130 mg, plasma miglustat; Low (about 130 mg oral) MD; median
Procedure: Mean total GAA protein and miglustat PK results from the first 8 Cohort 1 patients through Visit 9 and the first 2 Cohort 3 patients were assessed.
observedProperty: Tmax (h)
Give bare numbers, in h.

Q: Which Tmax value belongs to CCCCN1C[C@H](O)[C@@H](O)[C@H](O)[C@H]1CO [miglustat] ?
A: 3

---

Assay: Phase 1/2 study: plasma miglustat pharmacokinetics
Type: in vivo, human
Details: both sexes, human, plasma, po, 260 mg, plasma miglustat; High (about 260 mg oral) MD; arithmetic mean
observedProperty: half-life

Q: Which half-life value belongs to `CCCCN1C[C@H](O)[C@@H](O)[C@H](O)[C@H]1CO` ?
A: 5.3 h

---

Test: Phase 1/2 study: plasma miglustat pharmacokinetics
Type: in vivo, human
Conditions: both sexes, human, plasma, po, 130 mg, plasma miglustat; Low (about 130 mg oral) SD; geometric mean
observedProperty: Cmax (ng/mL)
Answers are plain numbers, in ng/mL.

Q: Which Cmax value belongs to CCCCN1C[C@H](O)[C@@H](O)[C@H](O)[C@H]1CO [miglustat] ?
A: 1490

---

Assay: Phase 1/2 study: plasma miglustat pharmacokinetics
Type: in vivo, human
Conditions: both sexes, human, plasma, po, 260 mg, plasma miglustat; High (about 260 mg oral) MD; median
observedProperty: Tmax (h)
Answers are plain numbers, in h.

Q: Which Tmax value belongs to CCCCN1C[C@H](O)[C@@H](O)[C@H](O)[C@H]1CO [miglustat] ?
A: 3

---

Assay: Phase 1/2 study: plasma miglustat pharmacokinetics
Format: in vivo, human
Conditions: both sexes, human, plasma, po, 260 mg, plasma miglustat; High (about 260 mg oral) MD; geometric mean
observedProperty: AUC(0-t) (ng·h/mL)
One number for each entry, in ng·h/mL.

Q: Which AUC(0-t) value belongs to `CCCCN1C[C@H](O)[C@@H](O)[C@H](O)[C@H]1CO` ?
A: 25000

---

Assay: Phase 1/2 study: plasma miglustat pharmacokinetics
Assay type: in vivo, human
Conditions: both sexes, human, plasma, po, 130 mg, plasma miglustat; Low (about 130 mg oral) SD; arithmetic mean; read-out: Vz/F
observedProperty: Vd/F (L)
Answers are plain numbers, in L.

Q: Which Vd/F value belongs to `CCCCN1C[C@H](O)[C@@H](O)[C@H](O)[C@H]1CO` ?
A: 85.8

---

Experiment: Phase 1/2 study: plasma miglustat pharmacokinetics
Assay type: in vivo, human
Settings: both sexes, human, plasma, po, 260 mg, plasma miglustat; High (about 260 mg oral) MD; geometric mean
observedProperty: Cmax (ng/mL)
Numbers only, in ng/mL.

Q: Which Cmax value belongs to `CCCCN1C[C@H](O)[C@@H](O)[C@H](O)[C@H]1CO` ?
A: 3570

---

Assay: Phase 1/2 study: plasma miglustat pharmacokinetics
Format: in vivo, human
Conditions: both sexes, human, plasma, po, 130 mg, plasma miglustat; Low (about 130 mg oral) SD; geometric mean
observedProperty: AUC(0-t)
Answer format: value, then unit.

Q: Which AUC(0-t) value belongs to `CCCCN1C[C@H](O)[C@@H](O)[C@H](O)[C@H]1CO` ?
A: 11800 ng·h/mL
